target: Cytochrome P450 1A2 (Homo sapiens)
Sequence (P05177 whole entry): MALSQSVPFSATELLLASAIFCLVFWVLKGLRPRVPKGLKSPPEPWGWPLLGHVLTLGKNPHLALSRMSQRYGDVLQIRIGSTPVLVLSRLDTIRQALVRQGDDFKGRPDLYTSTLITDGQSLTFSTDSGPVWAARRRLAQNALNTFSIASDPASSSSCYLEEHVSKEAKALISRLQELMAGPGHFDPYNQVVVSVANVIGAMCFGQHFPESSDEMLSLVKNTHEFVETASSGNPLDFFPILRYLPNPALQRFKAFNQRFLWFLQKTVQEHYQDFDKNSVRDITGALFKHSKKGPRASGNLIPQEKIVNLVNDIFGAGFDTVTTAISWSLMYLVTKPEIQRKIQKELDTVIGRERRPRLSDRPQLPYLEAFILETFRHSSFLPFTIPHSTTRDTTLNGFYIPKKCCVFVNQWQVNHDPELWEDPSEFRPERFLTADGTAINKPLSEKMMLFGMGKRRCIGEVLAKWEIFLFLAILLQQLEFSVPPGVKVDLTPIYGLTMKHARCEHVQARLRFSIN
pIC50: −log10 of the molar value.
Label condition met when pIC50 is at or above 5; anything below gets condition not met.

>>> print(df.to_string())
                                   compound                         test_target       category
0  Cc1cc(-n2ccnc2)cc2nc(-c3c(NCc4ccccn4)cc[nH]c3=O)[nH]c12  Cytochrome P450 1A2 (Homo sapiens)  condition met
1  Cc1cc(Br)cc2[nH]c(-c3c(N[C@H](CO)Cc4ccccc4)cc[nH]c3=O)nc12  Cytochrome P450 1A2 (Homo sapiens)  condition met
2  Cc1cc(-n2ccnc2)cc2[nH]c(-c3c(NCC(O)c4cccc(Cl)c4)cc[nH]c3=O)nc12 (stereo not given)  Cytochrome P450 1A2 (Homo sapiens)  condition met
3  Cc1cccc2[nH]c(-c3c(NCC(O)c4cccc(Cl)c4)cc[nH]c3=O)nc12 (stereo not given)  Cytochrome P450 1A2 (Homo sapiens)  condition met
4  Cc1cc(-c2ccccc2)cc2[nH]c(-c3c(N[C@H](CO)Cc4ccccc4)cc[nH]c3=O)nc12  Cytochrome P450 1A2 (Homo sapiens)  condition met

input: Is the recorded value of pIC50 equal to or greater than 5 for this compound? "Cc1cc(-n2ccnc2)cc2[nH]c(-c3c(N[C@H](CO)Cc4ccccc4)cc[nH]c3=O)nc12"
output: condition met

input: Is the recorded value of pIC50 equal to or greater than 5 for this compound? CNC(=O)c1cc(C)c2nc(-c3c(NCC(O)c4cccc(Cl)c4)cc[nH]c3=O)[nH]c2c1 (stereo not given)
output: condition not met

input: Is the recorded value of pIC50 equal to or greater than 5 for this compound? Cc1cc(C(=O)NC2CC2)cc2[nH]c(-c3c(NCC(O)c4cccc(Cl)c4)cc[nH]c3=O)nc12 (stereo not given)
output: condition not met

====

Entries with their measured IC50, system Cytochrome P450 3A4 (Homo sapiens):
Give bare numbers, in µM.

Please look at the items below and tell me IC50 for each one, in order.
1. Cc1cc(Br)cc2[nH]c(-c3c(N[C@H](CO)Cc4ccccc4)cc[nH]c3=O)nc12
2. CNC(=O)c1cc(C)c2nc(-c3c(NCC(O)c4cccc(Cl)c4)cc[nH]c3=O)[nH]c2c1 (centres undefined)
3. Cc1cc(C2=NCCCN2)cc2[nH]c(-c3c(NCC(O)c4cccc(Cl)c4)cc[nH]c3=O)nc12 (centres undefined)
4. Cc1cc(-n2ccnc2)cc2[nH]c(-c3c(N[C@H](CO)Cc4ccccc4)cc[nH]c3=O)nc12
5. Cc1c[nH]c(-c2cc(C)c3[nH]c(-c4c(NCC(O)c5cccc(Cl)c5)cc[nH]c4=O)nc3c2)n1 (centres undefined)
6. Cc1cc(-n2ccnc2)cc2nc(-c3c(NCc4ccccn4)cc[nH]c3=O)[nH]c12

output:
[3.1, 3.7, 16, 0.06, 0.36, 0.08]

Please look at the items below and tell me IC50 for each one, in order.
1. Cc1cc(C(=O)NC2CC2)cc2[nH]c(-c3c(NCC(O)c4cccc(Cl)c4)cc[nH]c3=O)nc12 (centres undefined)
2. Cc1cc(C2=NCCN2C)cc2[nH]c(-c3c(NCC(O)c4cccc(Cl)c4)cc[nH]c3=O)nc12 (centres undefined)

output:
1. 10
2. 35

====

molecular target: UniProt:P33261
Consider the following molecules; for each one, report its pIC50.
Answers are plain numbers, as −log10 of the molar value.

In [3]: df
Out[3]:
                                   molecule  metric  reported_result
0  Cc1cc(Br)cc2[nH]c(-c3c(N[C@H](CO)Cc4ccccc4)cc[nH]c3=O)nc12   pIC50             6.49

Please look at the items below and tell me pIC50 for each one, in order.
1. Cc1cccc2[nH]c(-c3c(NCC(O)c4cccc(Cl)c4)cc[nH]c3=O)nc12 (centres undefined)
2. Cc1cc(C2=NC(C)CN2)cc2[nH]c(-c3c(NCC(O)c4cccc(Cl)c4)cc[nH]c3=O)nc12 (centres undefined)
3. Cc1cc(-c2ccccc2)cc2[nH]c(-c3c(N[C@H](CO)Cc4ccccc4)cc[nH]c3=O)nc12

output:
1: 6.59; 2: 5.33; 3: 6.28

====

Entries with their measured pIC50, system Cytochrome P450 2C9 (Homo sapiens, UniProt P11712):
Give bare numbers, as −log10 of the molar value.

>>> print(df.to_string())
                                   compound  reported_result
0  Cc1cc(C(=O)NC2CCCC2)cc2[nH]c(-c3c(NCC(O)c4cccc(Cl)c4)cc[nH]c3=O)nc12 (stereo not given)             5.46

Please look at the items below and tell me pIC50 for each one, in order.
1. Cc1cc(C2=NCCN2C)cc2[nH]c(-c3c(NCC(O)c4cccc(Cl)c4)cc[nH]c3=O)nc12 (stereo not given)
2. Cc1cccc2[nH]c(-c3c(NCC(O)c4cccc(Cl)c4)cc[nH]c3=O)nc12 (stereo not given)
3. COc1ccc(-c2cc(C)c3nc(-c4c(N[C@H](CO)Cc5ccccc5)cc[nH]c4=O)[nH]c3c2)cc1

output:
1. 4.04
2. 5.82
3. 4.96

====

Consider the following molecules; for each one, report its IC50.
target: Cytochrome P450 2C19 (Homo sapiens)
Sequence (P33261 whole entry): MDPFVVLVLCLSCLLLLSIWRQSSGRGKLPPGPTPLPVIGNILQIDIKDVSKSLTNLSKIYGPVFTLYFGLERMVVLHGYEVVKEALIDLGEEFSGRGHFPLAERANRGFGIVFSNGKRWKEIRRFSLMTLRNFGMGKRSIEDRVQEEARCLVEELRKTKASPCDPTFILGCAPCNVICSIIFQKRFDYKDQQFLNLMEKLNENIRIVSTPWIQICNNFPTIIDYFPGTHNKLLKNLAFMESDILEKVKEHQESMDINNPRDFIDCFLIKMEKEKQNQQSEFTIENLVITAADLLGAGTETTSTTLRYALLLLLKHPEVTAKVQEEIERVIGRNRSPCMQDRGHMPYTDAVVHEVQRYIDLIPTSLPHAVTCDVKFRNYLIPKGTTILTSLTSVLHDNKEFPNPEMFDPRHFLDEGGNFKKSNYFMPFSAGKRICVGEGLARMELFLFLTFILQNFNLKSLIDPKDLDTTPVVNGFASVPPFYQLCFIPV
Answers are plain numbers, in nM.

Sample records with IC50:
>>> print(df.to_string())
                                   molecule                          test_target  reported_result
0  Cc1cc(C2=NC(C)(C)CN2)cc2[nH]c(-c3c(NCC(O)c4cccc(Cl)c4)cc[nH]c3=O)nc12 (stereo not drawn)  Cytochrome P450 2C19 (Homo sapiens)             5100
1  Cc1cc(-n2ccnc2)cc2nc(-c3c(NCc4ccccn4)cc[nH]c3=O)[nH]c12  Cytochrome P450 2C19 (Homo sapiens)              100
2  Cc1c[nH]c(-c2cc(C)c3[nH]c(-c4c(NCC(O)c5cccc(Cl)c5)cc[nH]c4=O)nc3c2)n1 (stereo not drawn)  Cytochrome P450 2C19 (Homo sapiens)             2000
3  Cc1cc(C2=NCCCN2)cc2[nH]c(-c3c(NCC(O)c4cccc(Cl)c4)cc[nH]c3=O)nc12 (stereo not drawn)  Cytochrome P450 2C19 (Homo sapiens)             8500
4  Cc1cc(C(=O)N(C)C)cc2[nH]c(-c3c(NCC(O)c4cccc(Cl)c4)cc[nH]c3=O)nc12 (stereo not drawn)  Cytochrome P450 2C19 (Homo sapiens)             1700

input: // fetch IC50 for Cc1cc(C(=O)NC2CC2)cc2[nH]c(-c3c(NCC(O)c4cccc(Cl)c4)cc[nH]c3=O)nc12 (stereo not drawn) ; system: Cytochrome P450 2C19 (Homo sapiens)
output: 3500

====

Entries with their measured IC50, system Cytochrome P450 2D6 (Homo sapiens, UniProt P10635):
Numbers only, in µM.

>>> df
                                smiles_code                               test_target  metric  reported_result
0  Cc1cc(-n2ccnc2)cc2[nH]c(-c3c(N[C@H](CO)Cc4ccccc4)cc[nH]c3=O)nc12  Cytochrome P450 2D6 (Homo sapiens, UniProt P10635)    IC50             0.56

Now examine the next entry.
input: // fetch IC50 for "Cc1cc(-n2ccnc2)cc2nc(-c3c(NCc4ccccn4)cc[nH]c3=O)[nH]c12" ; system: Cytochrome P450 2D6 (Homo sapiens, UniProt P10635)
Sequence (P10635 whole entry): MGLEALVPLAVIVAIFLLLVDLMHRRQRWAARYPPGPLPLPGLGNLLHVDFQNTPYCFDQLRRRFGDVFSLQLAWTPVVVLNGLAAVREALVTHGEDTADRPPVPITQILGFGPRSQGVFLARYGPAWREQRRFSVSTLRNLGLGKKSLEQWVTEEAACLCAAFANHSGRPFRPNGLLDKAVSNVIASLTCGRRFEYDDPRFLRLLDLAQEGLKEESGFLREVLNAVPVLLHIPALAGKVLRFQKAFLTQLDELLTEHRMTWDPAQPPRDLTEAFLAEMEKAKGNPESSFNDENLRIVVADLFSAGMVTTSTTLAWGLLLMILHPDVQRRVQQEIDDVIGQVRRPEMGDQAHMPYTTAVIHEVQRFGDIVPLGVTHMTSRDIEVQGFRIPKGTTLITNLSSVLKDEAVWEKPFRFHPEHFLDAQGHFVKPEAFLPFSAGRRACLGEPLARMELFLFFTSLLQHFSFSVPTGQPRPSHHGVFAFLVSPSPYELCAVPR
output: 5.7

====

Entries with their measured pIC50, system Cytochrome P450 2C9 (Homo sapiens, UniProt P11712):
Numbers only, as −log10 of the molar value.

Sample records with pIC50:
>>> print(df.to_string())
                                   molecule  reported_result
0  Cc1cc(Br)cc2[nH]c(-c3c(N[C@H](CO)Cc4ccccc4)cc[nH]c3=O)nc12             6.14
1  Cc1c[nH]c(-c2cc(C)c3[nH]c(-c4c(NCC(O)c5cccc(Cl)c5)cc[nH]c4=O)nc3c2)n1 (stereo unspecified)             5.11

Now examine the next entry.
input: // fetch pIC50 for Cc1cc(C2=NC(C)(C)CN2)cc2[nH]c(-c3c(NCC(O)c4cccc(Cl)c4)cc[nH]c3=O)nc12 (stereo unspecified) ; system: Cytochrome P450 2C9 (Homo sapiens, UniProt P11712)
Sequence (P11712 whole entry): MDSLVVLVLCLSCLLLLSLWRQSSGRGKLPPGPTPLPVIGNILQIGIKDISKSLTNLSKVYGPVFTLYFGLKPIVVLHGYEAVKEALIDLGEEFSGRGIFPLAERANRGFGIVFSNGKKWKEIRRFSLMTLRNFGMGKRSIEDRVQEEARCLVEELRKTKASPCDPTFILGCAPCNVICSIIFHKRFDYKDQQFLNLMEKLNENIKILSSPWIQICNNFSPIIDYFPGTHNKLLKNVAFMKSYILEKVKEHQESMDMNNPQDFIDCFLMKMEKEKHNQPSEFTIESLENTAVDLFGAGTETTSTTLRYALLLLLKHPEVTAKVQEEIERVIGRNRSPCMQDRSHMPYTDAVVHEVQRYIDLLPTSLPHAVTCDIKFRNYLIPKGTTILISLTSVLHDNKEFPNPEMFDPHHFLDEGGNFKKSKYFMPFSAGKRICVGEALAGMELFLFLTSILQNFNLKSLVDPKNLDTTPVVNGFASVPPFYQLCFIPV
output: 4.33

====

Entries with their measured IC50, system Cytochrome P450 2C9 (Homo sapiens, UniProt P11712):

                                   compound                               test_target  metric  reported_result
0  Cc1cc(-n2ccnc2)cc2[nH]c(-c3c(N[C@H](CO)Cc4ccccc4)cc[nH]c3=O)nc12  Cytochrome P450 2C9 (Homo sapiens, UniProt P11712)    IC50        < 0.04 µM
1  Cc1cc(-n2ccnc2)cc2nc(-c3c(NCc4ccccn4)cc[nH]c3=O)[nH]c12  Cytochrome P450 2C9 (Homo sapiens, UniProt P11712)    IC50        < 0.03 µM

Now examine the next entry.
input: Fill in IC50 for record Cc1cc(-n2ccnc2)cc2[nH]c(-c3c(NCC(O)c4cccc(Cl)c4)cc[nH]c3=O)nc12 (stereo not drawn)
output: < 0.04 µM
